Each record here notes measured LD50.
# Measurement Description: in vivo
# Condition Info: SC
Return type: number; implicit unit mpk.

Prompt line: # LD50 lookup, item Nc1ccccc1C(=O)[O-].Nc1ccccc1C(=O)[O-].[Cu+2] [Example 3, Bisanthranilato(O,N)copper(II)]
Response line: 750

Prompt line: Give the measured LD50 of CC(C)c1cc(C(=O)[O-])c(O)c(C(C)C)c1.CC(C)c1cc(C(=O)[O-])c(O)c(C(C)C)c1.[Cu+2] [Example 4] .
Response line: 240

Prompt line: Item under review: CC(=O)[O-].CC(=O)[O-].[Cu+2] [cupric acetate] . Reported LD50?
Response line: 350

Prompt line: Return reported LD50; argument: CC(=O)Oc1ccccc1C(=O)[O-].CC(=O)Oc1ccccc1C(=O)[O-].CC(=O)Oc1ccccc1C(=O)[O-].CC(=O)Oc1ccccc1C(=O)[O-].[Cu+2].[Cu+2] [Example 5, Tetra(μ-acetylsalicylato)biscopper(II)]
Response line: 760

----------
# Measurement Description: in vivo
# Condition Info: ratio of lethal dose to effective dose, PA (polyarthritis)
Readout Type: TI PA
Just the number.

{"columns": ["Molecule", "Readout Type", "Reading"],
 "data": [
  ["CC(=O)[O-].CC(=O)[O-].[Cu+2] [cupric acetate]", "TI PA", 0],
  ["CC(C)c1cc(C(=O)[O-])c(O)c(C(C)C)c1.CC(C)c1cc(C(=O)[O-])c(O)c(C(C)C)c1.[Cu+2]", "TI PA", 240],
  ["Nc1ccccc1C(=O)[O-].Nc1ccccc1C(=O)[O-].[Cu+2]", "TI PA", 750]
]}

// next item, TI PA requested
Prompt line: Which TI PA value is on record for CC(=O)Oc1ccccc1C(=O)[O-].CC(=O)Oc1ccccc1C(=O)[O-].CC(=O)Oc1ccccc1C(=O)[O-].CC(=O)Oc1ccccc1C(=O)[O-].[Cu+2].[Cu+2] ?
Response line: 760

----------
# Measurement Description: in vivo
# Condition Info: ratio of lethal dose to effective dose, CFE (carrageenin foot edema)
Readout Type: TI CFE
# output: bare number, no unit

Prompt line: What value of measured TI CFE is listed for CC(=O)[O-].CC(=O)[O-].[Cu+2] [cupric acetate] ?
Response line: 70

Prompt line: Would you mind telling me what TI CFE value was observed for CC(C)c1cc(C(=O)[O-])c(O)c(C(C)C)c1.CC(C)c1cc(C(=O)[O-])c(O)c(C(C)C)c1.[Cu+2] ?
Response line: 48

Prompt line: Entry CC(=O)Oc1ccccc1C(=O)[O-].CC(=O)Oc1ccccc1C(=O)[O-].CC(=O)Oc1ccccc1C(=O)[O-].CC(=O)Oc1ccccc1C(=O)[O-].[Cu+2].[Cu+2] has what TI CFE?
Response line: 150

Prompt line: Fill in the blank: the reported TI CFE of Nc1ccccc1C(=O)[O-].Nc1ccccc1C(=O)[O-].[Cu+2] is ____.
Response line: 150
